test system: SF-539 CNS; test: NCI-60 one-dose screen, 48 h (100 = growth as untreated, 0 = no growth, -100 = all killed); conditions: 10 µM
This is part of a sample that, as a whole, favours compounds with a hit. Of some 83,000 tested, about 20% had one in any assay.
experimental endpoint: growth (%)

{"molecule": "O=C(N/C(=C1/OCCN1Cc1ccccc1)[P+](c1ccccc1)(c1ccccc1)c1ccccc1)c1ccccc1", "experimental endpoint": "growth", "obs value": 25.3}
{"molecule": "CCOP(=O)(OCC)O[C@H]1CCC(=O)[C@@H]2[C@H]1[C@H]1C[C@@H]3[C@@]4(C)CCCC(C)(C(=O)OC)[C@@H]4CC[C@@]23C=C1C(C)C (some centres undefined)", "experimental endpoint": "growth", "obs value": 71.7}
{"molecule": "CN(C(=O)c1ccc(C(C)(C)C)cc1)c1sc2c(c1C#N)CCC(=O)C2", "experimental endpoint": "growth", "obs value": -86.1}
{"molecule": "COc1cc(/C=C/C(=O)c2cc(OC)c(OC)c(OC)c2)ccc1Oc1nc(Nc2ccc(F)cc2)nc(N(C)C)n1", "experimental endpoint": "growth", "obs value": -80.6}

====

System: NCI-H226 lung
Assay: NCI-60 one-dose screen, 48 h
Settings: 10 µM
Procedure: Growth inhibition of the NCI-H226 human Non-Small Cell Lung tumor cell line is measured as a screen for anti-cancer activity. Cells are grown in 96 well plates and exposed to the test compound for 48 hours. Compounds are tested at a single concentration, which is 10^-5 M for most compounds. The reported endpoint is percent growth (GI% or GIPRCNT), where numbers from 0 - 100% represent growth inhibition, and numbers from -100% - 0 represent cell death. […]
Compounds without any hit were thinned out: in the full panel of roughly 83,000, 20% have a hit. The source made the active and inactive calls. How the source made its calls: active means growth percent below 10; inactive means the rest.
Classes used: Y = active, N = inactive

{"mol smiles": "COc1cccc(-c2ccnc(/N=C(\\N)Nc3ccc(S(=O)(=O)Nc4nc(C)cc(C)n4)cc3)n2)c1", "class": "N"}
{"mol smiles": "Cc1ccc(NCC(=O)Nn2c(COc3ccccc3)nc3ccccc3c2=O)cc1", "class": "N"}
{"mol smiles": "O=C(CSc1nnc(-c2c[nH]c3ccccc23)n1-c1ccccc1)Nc1ccc(C(=O)/C=C/c2ccc(Br)cc2)cc1", "class": "N"}
{"mol smiles": "O=C(NO)c1ccc(CNC(=O)[C@H]2Cc3c([nH]c4ccccc34)[C@H](c3ccccc3)N2)cc1", "class": "N"}
{"mol smiles": "COc1ccc2nc(Cl)c(-c3cc(-c4ccccc4)nc(N)n3)cc2c1", "class": "N"}
{"mol smiles": "CN1CCc2c(sc3ncnc(N/N=C/c4ccc5ccccc5c4)c23)C1", "class": "N"}
{"mol smiles": "CCOc1ccc(/C=N/NC(=O)Cn2nc(Cc3ccc([N+](=O)[O-])cc3)c3onc(C)c3c2=O)cc1", "class": "Y"}
{"mol smiles": "CCN1CCN(c2ccc(NC(=O)Nc3ccc(-c4cc(C(=O)NC)c5ncccc5n4)cc3)cc2C(F)(F)F)CC1", "class": "Y"}
{"mol smiles": "Cc1noc2c(Cc3ccc([N+](=O)[O-])cc3)nn(CC(=O)N/N=C/c3ccc(Br)cc3)c(=O)c12", "class": "N"}

====

system: T-47D breast; test: NCI-60 one-dose screen, 48 h (100 = growth as untreated, 0 = no growth, -100 = all killed); settings: 10 µM
About 83,000 compounds went through this panel and 20% of them were active in at least one assay; those are over-represented in the sample as a whole.
Below, each entry is listed with its recorded growth.
experimental endpoint: growth (%)

{"compound": "COc1ccc2[nH]c(O)c(N=NC(=O)c3cc(-c4ccc(C)cc4)nc4ccccc34)c2c1", "experimental endpoint": "growth", "obs value": 69}
{"compound": "Cc1ccc(-c2nc(Nc3ccccc3C(=O)O)c3ccccc3n2)cc1", "experimental endpoint": "growth", "obs value": 10.7}
{"compound": "CC(=O)OC[C@@]1(C)C2CC[C@]3(C)C(CC=C4C5CC(C)(C)CC[C@]5(C(=O)Nc5ccccc5)CC[C@]43C)[C@@]2(C)C[C@@H](OC(C)=O)[C@@H]1OC(C)=O (stereo partly drawn)", "experimental endpoint": "growth", "obs value": 15.3}
{"compound": "COC(=O)C(Cc1ccc(O)c(O)c1)NC(=O)C(CSC/C=C(\\C)CCCC(C)CCCC(C)CCCC(C)C)NC(C)=O (stereo not drawn)", "experimental endpoint": "growth", "obs value": -0.796}
{"compound": "COc1cnc2c(c1)C(=O)c1c-2n(CCCNCCO)c(=O)c2cc(OC)c(OC)cc12", "experimental endpoint": "growth", "obs value": 10.1}
{"compound": "O=C1Nc2ccc(Cl)cc2/C1=C/c1ccc(OCc2ccccn2)cc1", "experimental endpoint": "growth", "obs value": 69}
{"compound": "CCCCSc1nc(Nc2ccc(/C(C)=N/NC(N)=S)cc2)c(C#N)c(-c2ccccc2)n1", "experimental endpoint": "growth", "obs value": 45.9}
{"compound": "COc1ccc(NC(=O)CSc2nnc(-c3ccc4nc(-c5ccc(Cl)cc5)[nH]c4c3)o2)cc1", "experimental endpoint": "growth", "obs value": 96.7}
{"compound": "CC(C)C1=C[C@@]23CC[C@@H]4[C@](C)(CCC[C@]4(C)C(=O)NCc4ccccc4)[C@H]2C[C@@H]1[C@H]1C(=O)OC(=O)[C@H]13", "experimental endpoint": "growth", "obs value": 56}
{"compound": "COc1cc(/C=C/C(=O)c2ccc(S(=O)(=O)NCCNc3nc(Nc4ccc(F)cc4)nc(N(C)C)n3)cc2)cc(OC)c1OC", "experimental endpoint": "growth", "obs value": 26.2}
{"compound": "COc1ccccc1[C@H]1C(C(=O)c2ccc(Cl)cc2)C2(N[C@@H]1c1ccccc1)C(=O)Nc1ccccc12 (stereo partly drawn)", "experimental endpoint": "growth", "obs value": 6.01}
{"compound": "O=C1c2ccccc2C(=O)c2c1c(C(=O)c1ccc(Cl)cc1)n1c2ccc2c3ccccc3ccc21", "experimental endpoint": "growth", "obs value": 104}
{"compound": "Clc1cccc(N/N=C/c2c[nH]c3ccccc23)n1", "experimental endpoint": "growth", "obs value": 27.4}
{"compound": "CCNCCCn1c2c(c3cc(OC)c(OC)cc3c1=O)C(=O)c1cc3c(nc1-2)OCO3", "experimental endpoint": "growth", "obs value": 31.6}
{"compound": "CC(=O)Nc1ccc(-n2cnc3cc(-c4ccc(O)cc4)ccc32)cc1F", "experimental endpoint": "growth", "obs value": 29.9}
{"compound": "COc1cc(/C=N/NC(=O)c2ccc3nc(-c4ccc(Cl)cc4)[nH]c3c2)cc(OC)c1OC", "experimental endpoint": "growth", "obs value": -58.6}
{"compound": "CN1C(=O)N(C)C2SC(N/N=C/C=C/c3ccccc3)=NC21 (stereo not drawn)", "experimental endpoint": "growth", "obs value": 61.8}
{"compound": "CCN(CC)CCOc1ccc(C(=C(C)c2ccccc2)c2ccc(OCCN(CC)CC)cc2)cc1", "experimental endpoint": "growth", "obs value": -85.3}

====

test system: HOP-62 NSCLC; test: NCI-60 one-dose screen, 48 h (100 = growth as untreated, 0 = no growth, -100 = all killed); conditions: 10 µM
About 83,000 compounds went through this panel and 20% of them were active in at least one assay; those are over-represented in the sample as a whole.

{"molecule": "CCOC(=O)C(Cc1ccccc1)N1C(=O)/C(=C/N2N=C(c3ccc(OC)cc3)CC2c2ccc3ccccc3c2)SC1=S (stereo not drawn)", "target or test system": "HOP-62 NSCLC", "unit of measure": "%", "growth": -54.8}
{"molecule": "OCc1[nH]nc2cc(Nc3ncc4ccc(Br)c(OC5CCC(O)CC5)c4n3)ccc12 (stereo not drawn)", "target or test system": "HOP-62 NSCLC", "unit of measure": "%", "growth": 0.469}
{"molecule": "CC(C)C(=O)Nc1ccc(C(=O)NC(=S)Nc2ccc(C(=O)O)cc2)cc1", "target or test system": "HOP-62 NSCLC", "unit of measure": "%", "growth": 102}
{"molecule": "COc1cccc(/C=N/NC(=O)c2ccc3nc(-c4ccc(Cl)cc4)[nH]c3c2)c1O", "target or test system": "HOP-62 NSCLC", "unit of measure": "%", "growth": -91.9}
{"molecule": "CCCSc1nc(NC2CC2)c(C#N)c(-c2ccc(OC)cc2)n1", "target or test system": "HOP-62 NSCLC", "unit of measure": "%", "growth": 84.6}
{"molecule": "O=C(NO)c1ccc(CN2CCN(c3nc(-c4ccccc4)c4ccccc4n3)CC2)cc1", "target or test system": "HOP-62 NSCLC", "unit of measure": "%", "growth": 2.94}
{"molecule": "CCOC(=O)CNC(=O)CN(Cc1ccccc1)C(=O)[C@@]1(C)CCC[C@]2(C)[C@H]3CC4C(C(C)C)=C[C@]3(CC[C@H]21)[C@@H]1C(=O)CCC(=O)[C@H]41", "target or test system": "HOP-62 NSCLC", "unit of measure": "%", "growth": 92.3}
{"molecule": "COc1ccc(C2NC(=S)NC(C)=C2C(=O)OC(C)C)cc1OC (stereo not drawn)", "target or test system": "HOP-62 NSCLC", "unit of measure": "%", "growth": 103}
{"molecule": "COc1cc2c3c(n(CCCN4CCOCC4)c(=O)c2cc1OC)-c1nc2c(cc1C3=O)OCO2", "target or test system": "HOP-62 NSCLC", "unit of measure": "%", "growth": -12.4}
{"molecule": "Cc1ccc(/C=C/C(=O)c2ccc(NC(=O)CSc3nnc(-c4c[nH]c5ccccc45)n3-c3ccccc3)cc2)cc1", "target or test system": "HOP-62 NSCLC", "unit of measure": "%", "growth": 95.8}
{"molecule": "CCOC(=O)C1NN(c2ccc(S(N)(=O)=O)cc2)c2nc3nc(-c4cccs4)cc(-c4cccs4)c3c(=O)n21 (stereo not drawn)", "target or test system": "HOP-62 NSCLC", "unit of measure": "%", "growth": 109}
{"molecule": "COc1ccc(N2N=C(c3ccc4c(c3)OCCO4)CC2c2cccc(NC(=O)CCCNS(=O)(=O)c3ccc(F)cc3)c2)cc1 (stereo not drawn)", "target or test system": "HOP-62 NSCLC", "unit of measure": "%", "growth": 89.6}
{"molecule": "COc1cc(/C=C/C(=O)c2cc(OC)c(OC)c(OC)c2)ccc1Oc1nc(Nc2ccc(F)cc2)nc(N(C)C)n1", "target or test system": "HOP-62 NSCLC", "unit of measure": "%", "growth": -44.5}
{"molecule": "NC(=Nc1ccc(OCCCCCCCCn2ccnn2)cc1)c1ccccc1", "target or test system": "HOP-62 NSCLC", "unit of measure": "%", "growth": 18.2}
{"molecule": "COc1cc2c(cc1OC)CN(CCCCOc1cc(O)c3c(=O)cc(-c4ccccc4)oc3c1)CC2", "target or test system": "HOP-62 NSCLC", "unit of measure": "%", "growth": 80.7}
{"molecule": "N#Cc1ccc(-c2nn(-c3ccc(C(=O)O)cc3)cc2CNc2cc(Cl)cc(C(F)(F)F)c2)cc1", "target or test system": "HOP-62 NSCLC", "unit of measure": "%", "growth": 6.03}
{"molecule": "Cc1ccc(CNC(=O)Cc2ccc3c(c2)CN(C2CCC(=O)NC2=O)C3=O)cc1 (stereo not drawn)", "target or test system": "HOP-62 NSCLC", "unit of measure": "%", "growth": -10.2}
{"molecule": "CN1CCN(c2ccc(Nc3nc(NCCCNC(=O)c4ccc(F)cc4)c4sccc4n3)cc2)CC1", "target or test system": "HOP-62 NSCLC", "unit of measure": "%", "growth": 92.5}
